system.tested: porcine trypsin (porcine, UniProt P00761 9-231)
Sequence (P00761 9-231 limits assumed): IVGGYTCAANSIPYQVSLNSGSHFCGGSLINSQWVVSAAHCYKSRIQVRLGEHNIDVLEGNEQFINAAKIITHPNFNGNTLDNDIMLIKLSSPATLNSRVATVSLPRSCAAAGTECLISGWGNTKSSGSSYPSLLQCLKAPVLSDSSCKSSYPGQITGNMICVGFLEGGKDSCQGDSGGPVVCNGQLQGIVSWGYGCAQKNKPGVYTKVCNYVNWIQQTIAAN
assay.overview: chromogenic (S-2251) amidolytic inhibition assay, trypsin 50 nM
pKi: −log10 of the molar value.
observable: pKi

binder	numeric.result
L26Q KD1 (other, Point mutant of His-tagged KD1, KD1 numbering; also called L26Q (L17Q); not shown: N-terminal decahistidine-tag leader and enterokinase cleavage site from pET19b) DAAQEPTGNNAEICLLPLDYGPCRAQLLRYYYDRYTQSCRQFLYGGCEGNANNFYTWEACDDACWRIEKVPKV	6.79
R29D KD1 (other, Point mutant of His-tagged KD1, KD1 numbering; also called R29D (R20D); not shown: N-terminal decahistidine-tag leader and enterokinase cleavage site from pET19b) DAAQEPTGNNAEICLLPLDYGPCRALLLDYYYDRYTQSCRQFLYGGCEGNANNFYTWEACDDACWRIEKVPKV	5.34
R29A KD1 (other, Point mutant of His-tagged KD1, KD1 numbering; also called R29A (R20A); not shown: N-terminal decahistidine-tag leader and enterokinase cleavage site from pET19b) DAAQEPTGNNAEICLLPLDYGPCRALLLAYYYDRYTQSCRQFLYGGCEGNANNFYTWEACDDACWRIEKVPKV	7.28

Values compiled from patent US20090099087A1.
